Measured viability inhibition at highest dose accompanies every entry in the list below.
tested on: T-47D; assay: viability inhibition at highest dose (% inhibition); higher = more growth inhibition; conditions: 4-OH-tamoxifen in medium 0 µM; 72 h
measured.attribute: viability inhibition at highest dose

1. C[C@]12O[C@H](C[C@]1(O)CO)n1c3ccccc3c3c4c(c5c6ccccc6n2c5c31)CNC4=O [Lestaurtinib] (drug 1000 nM) = -13.3
2. C=CCn1c(=O)c2cnc(Nc3ccc(N4CCN(C)CC4)cc3)nc2n1-c1cccc(C(C)(C)O)n1 [MK-1775] (drug 10000 nM) = 22.4
3. Cn1cncc1[C@@](N)(c1ccc(Cl)cc1)c1ccc2c(c1)c(-c1cccc(Cl)c1)cc(=O)n2C [Tipifarnib (Zarnestra)] (drug 10000 nM) = 28.4

====

Measured viability inhibition at highest dose accompanies every entry in the list below.
test system: T-47D; test: viability inhibition at highest dose (% inhibition); higher = more growth inhibition; details: 4-OH-tamoxifen in medium 1 µM; 72 h
measured.attribute: viability inhibition at highest dose

1. CO[C@H]1C[C@@H]2CC[C@@H](C)[C@@](O)(O2)C(=O)C(=O)N2CCCC[C@H]2C(=O)O[C@H]([C@H](C)C[C@@H]2CC[C@@H](O)[C@H](OC)C2)CC(=O)[C@H](C)/C=C(\C)[C@@H](O)[C@@H](OC)C(=O)[C@H](C)C[C@H](C)/C=C/C=C/C=C/1C [Sirolimus (Rapamycin)] (drug 1000 nM) = 13.8
2. CC[C@H](CO)Nc1nc(NCc2ccccc2)c2ncn(C(C)C)c2n1 [Seliciclib (Roscovitine)] (drug 10000 nM) = -17.1

====

test system: MCF-7; assay: drug sensitivity score (DSS) (DSS (dimensionless)); higher = more sensitive; extreme values may be limits of the assay; details: 4-OH-tamoxifen in medium 1 µM; 72 h
Measured drug sensitivity score accompanies every entry in the list below.
measured.attribute: drug sensitivity score

1) O=C(NC[C@H](O)CO)c1ccncc1Nc1ccc(I)cc1F = 1.22
2) Cc1ccc(NC(=O)c2ccc(CN3CCN(C)CC3)cc2)cc1Nc1nccc(-c2cccnc2)n1 = 0
3) N[C@@H](CSC(c1ccccc1)(c1ccccc1)c1ccccc1)C(=O)O = 1.69
4) NC1(c2ccc(-c3nc4ccn5c(=O)[nH]nc5c4cc3-c3ccccc3)cc2)CCC1 = 4.73
5) COc1cc2nccc(Oc3ccc(NC(=O)Nc4cc(C)on4)c(Cl)c3)c2cc1OC = 0.0672

====

tested on: T-47D; assay: viability inhibition at highest dose (% inhibition); higher = more growth inhibition; details: 4-OH-tamoxifen in medium 0 µM; 72 h
Field: label. Allowed values: TRUE (viability inhibition at highest dose < -20) or FALSE (viability inhibition at highest dose >= -20).

1) COc1cc(F)c(F)c(Nc2ccc(I)cc2F)c1NS(=O)(=O)C1(C[C@H](O)CO)CC1 [Refametinib (RDEA119)] (drug 10000 nM) = FALSE
2) Cn1cnc2c(F)c(Nc3ccc(Br)cc3F)c(C(=O)NOCCO)cc21 [MEK-162 (ARRY-162)] (drug 1000 nM) = FALSE
3) Oc1ccc2c(c1)CC[C@H](c1ccccc1)[C@@H]2c1ccc(OCCN2CCCC2)cc1 [Lasofoxifene] (drug 1000 nM) = TRUE
4) CO[C@H]1C[C@@H]2CC[C@@H](C)[C@@](O)(O2)C(=O)C(=O)N2CCCC[C@H]2C(=O)O[C@H]([C@H](C)C[C@@H]2CC[C@@H](OP(C)(C)=O)[C@H](OC)C2)CC(=O)[C@H](C)/C=C(\C)[C@@H](O)[C@@H](OC)C(=O)[C@H](C)C[C@H](C)/C=C/C=C/C=C/1C [Ridaforolimus] (drug 100 nM) = FALSE
5) COc1cc(CCc2cc(NC(=O)c3ccc(N4CC(C)NC(C)C4)cc3)n[nH]2)cc(OC)c1 (stereo not given) [AZD4547] (drug 1000 nM) = TRUE
